Recorded pIC50 by entry
System: HEK293
test method notes: Cytotoxicity against HEK293 cells after 2 days by CCK-8 assay
Type: functional, cell-based
condition notes: Homo sapiens, HEK293, 48 h
// field semantics: pIC50 = negative decimal log of concentration (mol/L)

Solved entries:
| compound | measured target | pIC50 |
| --- | --- | --- |
| CCCCCCNCC(O)COc1cc(O)c2c(=O)c3ccccc3oc2c1 (stereo not drawn) | HEK293 | 5.84 |
| CC[C@@]1(O)C(=O)OCc2c1cc1n(c2=O)Cc2cc3ccccc3nc2-1 [CAMPTOTHECIN] | HEK293 | 6.11 |

May I ask what pIC50 has been recorded for CCCCCNCC(O)COc1cc(O)c2c(=O)c3ccccc3oc2c1 (stereo not drawn) ?
5.58
